# TARGET UNDER TEST: Dyrk2 (Homo sapiens, UniProt Q92630)
# Construct: made in house; host or cells: Escherichia coli BL21(DE3) with pRARE; plasmid pGEX-2TK-Dyrk2 (gift from W. Becker, Aachen)
# Sequence (Q92630 1-601): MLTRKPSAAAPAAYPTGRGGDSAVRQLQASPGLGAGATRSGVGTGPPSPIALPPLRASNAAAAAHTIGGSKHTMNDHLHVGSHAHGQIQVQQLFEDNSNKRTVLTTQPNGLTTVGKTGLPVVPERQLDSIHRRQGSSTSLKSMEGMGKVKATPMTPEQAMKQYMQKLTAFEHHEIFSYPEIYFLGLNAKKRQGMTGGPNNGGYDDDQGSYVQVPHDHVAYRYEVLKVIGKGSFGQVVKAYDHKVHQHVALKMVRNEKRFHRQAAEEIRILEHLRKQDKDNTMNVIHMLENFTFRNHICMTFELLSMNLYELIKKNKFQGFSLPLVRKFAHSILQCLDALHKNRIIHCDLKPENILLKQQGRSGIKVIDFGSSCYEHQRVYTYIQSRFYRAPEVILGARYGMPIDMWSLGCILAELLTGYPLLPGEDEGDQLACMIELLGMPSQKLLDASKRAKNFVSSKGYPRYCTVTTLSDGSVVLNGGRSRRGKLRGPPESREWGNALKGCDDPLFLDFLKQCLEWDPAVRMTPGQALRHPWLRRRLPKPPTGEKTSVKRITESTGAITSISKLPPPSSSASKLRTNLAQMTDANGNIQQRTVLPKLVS
# ASSAY PROTOCOL: Dyrk2 kinase assay (32P-ATP, Woodtide)
# Assay type: biochemical
# RUN CONDITIONS: 100 µM ATP; read-out: IC50 Dyrk2
MEASUREMENT TYPE: IC50 (nM)
Numbers only, in nM.

Cn1cncc1-c1csc(-c2cccnc2)c1    5100
c1cncc(-c2csc(-c3cncc4ccccc34)c2)c1    1200
NC(=O)c1cncc(-c2csc(-c3cccnc3)c2)c1    300

Quick one: give me IC50 for each item below, same order please.
1. Nc1cc(-c2csc(-c3cccnc3)c2)cnc1Cl
2. Cc1ccc(-c2csc(-c3cccnc3)c2)cn1
3. c1cncc(-c2cc(-c3cncnc3)cs2)c1

Reply text:
1: 300; 2: 1600; 3: 1800

Attribution: paper PMC3968014
